system: IGROV-1; test: NCI tumour cell line growth inhibition, 48 h
Activity calls are given as the source filed them. No stated cut-off is given here; in the data, active = GI50 up to about 1.1 µM and inactive = higher. Where a SMILES comes first, the peptide text is derived from it. The star is where a group is joined. Boc = CC(C)(C)OC(=O)*
outcome.measure: GI50

Worked examples, 2 compounds total:
compound	GI50
NC(=S)N/N=C(\CC1OC(=O)c2ccccc21)c1ccc(Cl)cc1 (centres undefined)	40.3 µM (inactive)
COC(=O)C(Cc1c[nH]c2ccccc12)NC(=O)C(Cc1c[nH]c2ccccc12)NC(=O)C(Cc1c[nH]c2ccccc12)NC(=O)OC(C)(C)C (stereo not drawn) (Boc-Trp-Trp-Trp-OMe; configuration not given here)	18.7 µM (inactive)

Give GI50 for each of the items listed below.
1. CCOC(=O)/C(=N/Nc1ccc(C)cc1)N1C(=S)N(C)N=C(C)C=C1S
2. CC(=O)Nc1sccc1S(=O)(=O)c1ccc(Cl)cc1
3. O=c1c2nn[nH]c2nc2n1CC(c1ccccc1)S2 (centres undefined)
4. C/C(=C1/N=C(c2ccccc2)OC1=O)c1ccc(C)cc1
5. COc1ccccc1NC(=O)C(CC(C(=O)Nc1ccccc1OC)/C(C)=N/Nc1ccc([N+](=O)[O-])cc1[N+](=O)[O-])/C(C)=N/Nc1ccc([N+](=O)[O-])cc1[N+](=O)[O-] (centres undefined)
6. CC(C)[C@H](NC(=O)[C@H](N)Cc1ccc(N(CCCl)CCCl)cc1)C(=O)O

Resp:
["> 100 µM (inactive)", "> 100 µM (inactive)", "> 100 µM (inactive)", "> 100 µM (inactive)", "54.5 µM (inactive)", "> 100 µM (inactive)"]

I'm hoping you can list GI50 for every compound here, please.
1. CC1(C23CC4CC(CC(C4)C2)C3)n2c(=O)n(-c3ccccc3)c(=O)n2C1(C)C12CC3CC(CC(C3)C1)C2 (centres undefined)
2. CCOC(=O)C(C)(C)Oc1ccc2c(=O)cc(-c3ccc(Cl)cc3)oc2c1
3. NC(=O)C[C@H](NC(=O)C1(NC(=O)[C@H](Cc2ccc(CP(=O)(O)O)cc2)NC(=O)C(=O)O)CCCCC1)C(=O)NCCCc1cccc2ccccc12
4. NNC(=O)N/N=C1/C(=O)N(c2ccc(Cl)c(Cl)c2)C(=O)C(=O)C1c1nc2ccccc2o1 (centres undefined)
5. NC1(C(=O)O)CCC(C(=O)O)CC1 (centres undefined)
6. CCOC(=O)c1c2c(n(Cc3ccccc3)c1C)C(=O)C(=O)c1ccccc1-2

Resp:
1. > 100 µM (inactive)
2. > 100 µM (inactive)
3. > 10 µM (inactive)
4. > 100 µM (inactive)
5. > 100 µM (inactive)
6. 1.15 µM (inactive)

For every record below, what is its GI50?
1. COc1c2ccoc2c(OC)c2oc(=O)ccc12
2. CC1(C)OC(C(C)(C)O)C(C(C)(C)O)O1 (centres undefined)
3. O=C1NC(N2CCCC(CO)C2)=N/C1=C\c1ccccc1 (centres undefined)

Resp:
> 100 µM (inactive)
> 100 µM (inactive)
> 100 µM (inactive)

Could I get GI50 for every one of these entries?
1. COC(=O)/C=C\C(C#N)(C#N)/N=C/c1ccc(C)cc1
2. Oc1ccc(-c2nc(-c3cccnc3)c(-c3ccc(Cl)cc3)[nH]2)cc1O
3. CC(=O)CCn1c(=S)sc2ccccc21
4. CCOC(=O)C1C(NC(N)=O)N(Cc2ccccc2)C(=O)N1Cc1ccccc1 (centres undefined)
5. NC(=O)CCC(N=C(N)c1csc(C2OC(CO)C(O)C2O)n1)C(=O)O (centres undefined)
6. CCNc1cc2oc(=O)cc(C(F)(F)F)c2cc1C

Resp:
13.1 µM (inactive)
4.34 µM (inactive)
98.6 µM (inactive)
> 100 µM (inactive)
> 100 µM (inactive)
> 100 µM (inactive)

* * *

system: HCT-116; experiment: NCI tumour cell line growth inhibition, 48 h
Activity calls are given as the source filed them. Cut-off read from the data, not from the text of the source: active = GI50 up to about 1.1 µM and inactive = higher.
The reply should be one of these categories: T = active, F = inactive

compound	experimental.target	label.value
C[C@]12c3c4cc(NC(=O)C(=O)NCc5ccc(-c6ccccn6)nc5)cc3Oc3cc(NC(=O)C(=O)NCc5ccc(-c6ccccn6)nc5)cc(c31)OC1C=C(NC(=O)C(=O)NCc3ccc(-c5ccccn5)nc3)C=C(O4)C12 (stereo not given in full)	HCT-116	F
CC(C)(C)OC(=O)CN1CCNCCN(CC(=O)OC(C)(C)C)CC1	HCT-116	F
CC[N+]1(C)CCC(O)(/C=C/c2ccc(Cl)cc2)C(C(=O)/C=C/c2ccc(Cl)cc2)C1 (stereo not given)	HCT-116	F
CCOC(=O)c1c2c(n(Cc3ccccc3)c1C)C(=O)C(=O)c1ccccc1-2	HCT-116	T

Req: I'd appreciate the recorded outcome for COc1cc(/C=C2/SC(c3ccccc3)N(c3cc(Cl)ccc3Cl)C2=O)cc(OC)c1OC (stereo not given) from this test.
Resp: F

Req: Quick one: O=C1C(Cl)N(c2ccc(Cl)cc2Cl)C1c1c[nH]c2ccccc12 (stereo not given)
Resp: F

Req: Same thing, different compound: `Oc1ccc2ccccc2c1-c1c(Nc2ccccc2)ccc2ccccc12`
Resp: F

Req: Try this compound next: `CC#N.O[C@@H]1CCCC[C@H]1O.O[C@@H]1CCCC[C@H]1O.[TeH2]`
Resp: F

Req: Same lookup for `CC1=C(C)SC(=C2Sc3c(n(C)c(=O)n(C)c3=O)S2)S1` , please.
Resp: F

Req: Input Cc1ccc(NC(=O)C(=O)C(C(=O)c2ccc3ccccc3c2)C2OC(=O)c3ccccc32)cc1C (stereo not given)
Resp: F

* * *

test system: COLO 205; experiment: NCI tumour cell line growth inhibition, 48 h
Active and inactive are the calls of the source. No stated cut-off is given here; in the data, active = GI50 up to about 1.1 µM and inactive = higher.
outcome.measure: GI50

Solved cases (5 shown):
compound	experimental.target	GI50
COCOc1ccc(C(=O)Oc2cccc3c2OC(C)(C)O3)c(OCOC)c1	COLO 205	> 100 µM (inactive)
COCCOCCOCCC(=O)NC1CC2CCC1(C)C2(C)C (configuration not stated)	COLO 205	> 100 µM (inactive)
O=C1NC(N2CCCC(CO)C2)=N/C1=C\c1ccccc1 (configuration not stated)	COLO 205	> 100 µM (inactive)
CC(C)(C)c1cc(C2=NN(c3ccccc3)C(c3ccccc3)C2)cc(C(C)(C)C)c1O (configuration not stated)	COLO 205	35.7 µM (inactive)
CC(=O)[O-].Cc1ncc(CO)c(/C=N/NC(N)=S)c1[O-].[Zn+2]	COLO 205	> 100 µM (inactive)

Return reported GI50 values for all items listed beneath this line.
1. CCOC(=O)C(NC(C)=O)(Nc1ccc(F)cc1)C(F)(F)F (configuration not stated)
2. CO[C@]12CC(=O)C3(C(C[C@H]4CC5CCC6=CC(=O)CC[C@]6(OC(C)=O)C5C[C@@]43C)C1)C1C[C@H]3[C@@H]4CCC5=CC(=O)CC[C@]5(OC(C)=O)[C@H]4CC[C@]3(C)C12 (some centres not stated)
3. COC(=O)c1cc(C)n(CN(Cc2ccccc2)Cn2nc(C(=O)OC)cc2C)n1

Resp:
["> 100 µM (inactive)", "19.7 µM (inactive)", "> 46.9 µM (inactive)"]

* * *

system: UO-31; experiment: NCI tumour cell line growth inhibition, 48 h
Calls of active or inactive are those of the source. Cut-off read from the data, not from the text of the source: active = GI50 up to about 1.1 µM and inactive = higher.
outcome.measure: GI50

As a guide, the following entries are already answered.
compound	outcome.measure	recorded.measurement
COCCOC(=O)C1=C(O)c2ccccc2S(=O)(=O)N1C	GI50	> 100 µM (inactive)
CCOC(=O)C(NCc1ccccc1)(NC(=O)c1ccccc1)C(F)(F)F (stereo not drawn)	GI50	46.6 µM (inactive)

Read the next record carefully.
Req: Fill blank: measured GI50 of the compound `Cn1c(=O)c2nc(CCS)[nH]c2n(C)c1=O` is ____.
Resp: > 100 µM (inactive)

* * *

tested on: K562; experiment: NCI tumour cell line growth inhibition, 48 h
The source made the active and inactive calls. Cut-off read from the data, not from the text of the source: active = GI50 up to about 1.1 µM and inactive = higher.
Thanks in advance; please answer with one of these: t for active, f for inactive

Here are 6 compounds together with their reported answers.
compound	label.value
O=C(/C=C/c1ccc2ccccc2c1)NCc1ccc(C(=O)NCc2ccccc2)cc1	f
CC1(C)OCC2OC3(c4nc(C#N)c(N)o4)OC(C)(C)OC3C2O1 (stereo unspecified)	f
CC(C)(C)OC(=O)N[C@@H](Cc1ccccc1)C(=O)N1CC[C@@H](C(=O)N2[C@H]3CC4CC[C@@]3(CS2(=O)=O)C4(C)C)N1	f
CC1CC[C@]2(C(=O)O)CCC3(C)C(=CC(=O)C4[C@@]5(C)CCC(=O)C(C)(C)C5CC[C@]43C)[C@@H]2[C@H]1C (stereo partly specified)	f
COc1cc2c(cc1OC)C1Cc3sccc3CN1CC2 (stereo unspecified)	f
CCOC(=O)C(NC(C)=O)(Nc1ccc(F)cc1)C(F)(F)F (stereo unspecified)	f

Continue with the next compound.
Req: For this compound, state the assay outcome: CC1=C2C(O)C(C(C)C(=O)NCC(C)C)CCC2(C)C=CC1=O (stereo unspecified)
Resp: f
